Where do these numbers come from? They come from the supplement of paper PMC8285479.

system: NCI-H1944; assay: normalised cell viability (NPI; 0 = phenylarsine oxide control, 1 = DMSO control) (fraction of DMSO control); higher = more viable cells (less compound toxicity); settings: glucocorticoid arm: vehicle; compound 5 µM; 6 days
Structures can show the parent of a compound that is named as a salt. Whole data set: some 1,900 compounds, median “normalised cell viability (NPI; 0 = phenylarsine oxide control, 1 = DMSO control)” near 1, cut for the lowest 2% near 0.039. The full list was thinned out, with the lowest values kept by preference.
normalised cell viability values for the molecules below.
Kindly provide the number alone.

Below, 6 molecules whose answers are already recorded.
molecule	normalised cell viability
CC1=C(C(=O)OC2CCCCC2)C(c2ccc([N+](=O)[O-])cc2)C2=C(CC(C)(C)CC2=O)N1 (stereo not given)	1
COc1ccccc1N1CCN(CCCCNC(=O)c2ccc3ccccc3c2)CC1	0.961
COc1ccc(CCN(C)CCCC(C#N)(c2cc(OC)c(OC)c(OC)c2)C(C)C)cc1OC (racemic) [(±)-Methoxyverapamil hydrochloride]	0.999
C#C[C@]1(O)CC[C@H]2[C@@H]3CCC4=Cc5oncc5C[C@]4(C)[C@H]3CC[C@@]21C	1.01
C/C(=C\c1csc(C)n1)[C@@H]1C[C@@H]2O[C@]2(C)CCC[C@H](C)[C@H](O)[C@@H](C)C(=O)C(C)(C)[C@@H](O)CC(=O)N1 [Ixabepilone]	0.032
CS(=O)(=O)N1CCc2c(-c3cnc(N)nc3)nc(N3CCOCC3)nc21	0.651

May I ask what normalised cell viability has been recorded for CCN1CCN(Cc2ccc(-c3cc4c(N[C@H](C)c5ccccc5)ncnc4[nH]3)cc2)CC1 ?
0.6

May I ask what normalised cell viability has been recorded for O=[N+]([O-])c1ccc(CSc2ncnc3c2ncn3[C@@H]2O[C@H](CO)[C@@H](O)[C@H]2O)cc1 ?
0.992

May I ask what normalised cell viability has been recorded for CO[C@H](C(=O)[C@@H](O)[C@@H](C)O)[C@@H]1Cc2cc3cc(O[C@H]4C[C@@H](O[C@H]5C[C@@H](O)[C@H](O)[C@@H](C)O5)[C@H](O)[C@@H](C)O4)c(C)c(O)c3c(O)c2C(=O)[C@H]1O[C@H]1C[C@@H](O[C@H]2C[C@@H](O[C@H]3C[C@](C)(O)[C@H](O)[C@@H](C)O3)[C@@H](O)[C@@H](C)O2)[C@H](O)[C@@H](C)O1 ?
0.011

May I ask what normalised cell viability has been recorded for COC1=C(OC)C(=O)c2ccccc2C1=O ?
0.891

May I ask what normalised cell viability has been recorded for Cc1cc2c(cc1Cl)N(C(=O)Nc1cccc3ncccc13)CC2 ?
0.992

====

tested on: NCI-H1944; experiment: normalised cell viability (NPI; 0 = phenylarsine oxide control, 1 = DMSO control) (fraction of DMSO control); NCI-H1944 is a non-small cell lung cancer line; higher = more viable cells (less compound toxicity); conditions: glucocorticoid arm: hydrocortisone 2.75 uM co-treatment; compound 5 µM; 6 days;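 note: CTB read-out in 384-well plates, triplicate wells, NPI normalised per plate against 1 µM phenylarsine oxide (0) and 0.1% DMSO (1) controls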
Structures can show the parent of a compound that is named as a salt. The full ranking holds about 1,900 compounds; the median of “normalised cell viability (NPI; 0 = phenylarsine oxide control, 1 = DMSO control)” is about 1, and the lowest 2% start at about 0.039. This excerpt belongs to a sample that is enriched for the lowest values.
normalised cell viability values for the molecules below.
Kindly provide the number alone.

Below, 6 molecules whose answers are already recorded.
molecule	normalised cell viability
CC(Cc1ccccc1)Nc1ncnc2c1ncn2C1OC(CO)C(O)C1O (stereo not drawn) [R(-)-N6-(2-Phenylisopropyl)adenosine]	1.01
O=C(c1ccc(F)cc1)N1CCCC(c2nc(-c3ccc(F)cc3)no2)C1 (configuration not stated)	1.02
O=C(O)CCC(NC(=O)c1ccccc1C(=O)O)C(=O)O [Phthalamoyl-L-glutamic acid trisodium]	1.06
Nc1c(O)cc(O)cc1C=Cc1ccc(O)cc1 [Aminoresveratrol sulfate]	1.01
Nc1nc(Cl)nc2c1ncn2[C@@H]1O[C@H](COP(=O)(O)OP(=O)(O)OP(=O)(O)O)[C@H](O)C1O (some centres not stated) [2-Chloroadenosine triphosphate tetrasodium]	0.818
N=C(N)NCCCCN [Agmatine sulfate]	1

May I ask what normalised cell viability has been recorded for Nc1ncnc2c1ncn2[C@@H]1O[C@H](COP(=O)(O)CP(=O)(O)OP(=O)([O-])O)[C@@H](O)[C@H]1O.[Li+] [alpha,beta-Methylene adenosine 5'-triphosphate lithium salt] ?
1

May I ask what normalised cell viability has been recorded for CCN(CC)Cc1ccc2cc(COC(=O)Nc3ccc(C(=O)NO)cc3)ccc2c1 ?
0.00151

May I ask what normalised cell viability has been recorded for CCn1nnc2c(N3CCOCC3)nc(-c3ccc(NC(=O)Nc4ccc(C(=O)N5CCN(C)CC5)cc4)cc3)nc21 ?
0.375

May I ask what normalised cell viability has been recorded for CC(NC(=O)C(O)c1cc(F)cc(F)c1)C(=O)NC1C(=O)N(C)c2ccccc2-c2ccccc21 (configuration not stated) ?
0.995

May I ask what normalised cell viability has been recorded for C[N+](C)(C)CCO.[Br-] [Choline bromide] ?
1

May I ask what normalised cell viability has been recorded for COC(=O)Nc1ccc(-c2nc(N3CCOCC3)c3cnn(C4CCN(C(=O)OC)CC4)c3n2)cc1 ?
0.753

May I ask what normalised cell viability has been recorded for Clc1ccc(C(c2ccc(Cl)cc2)[n+]2ccn(CC(OCc3ccc(Cl)cc3Cl)c3ccc(Cl)cc3Cl)c2)cc1 (configuration not stated) [Calmidazolium chloride] ?
0.00138

May I ask what normalised cell viability has been recorded for O=C(O)c1ccnc(C(=O)O)c1 ?
0.999

May I ask what normalised cell viability has been recorded for O=C(O)C=C1CCCc2ccccc2C1O (configuration not stated) ?
0.948

May I ask what normalised cell viability has been recorded for CCN(CC)CCNC(=O)c1ccc(NC(C)=O)cc1 [N-Acetylprocainamide hydrochloride] ?
0.974

May I ask what normalised cell viability has been recorded for CCCCCCCCCC(=O)NC(CN1CCOCC1)[C@H](O)c1ccccc1 (mixture of isomers) ?
1
